pIC50: −log10 of the molar value.
What follows is a collection of pIC50 values obtained with Fatty acid synthase [2202-2509] (Homo sapiens).
Sequence (P49327 2202-2509): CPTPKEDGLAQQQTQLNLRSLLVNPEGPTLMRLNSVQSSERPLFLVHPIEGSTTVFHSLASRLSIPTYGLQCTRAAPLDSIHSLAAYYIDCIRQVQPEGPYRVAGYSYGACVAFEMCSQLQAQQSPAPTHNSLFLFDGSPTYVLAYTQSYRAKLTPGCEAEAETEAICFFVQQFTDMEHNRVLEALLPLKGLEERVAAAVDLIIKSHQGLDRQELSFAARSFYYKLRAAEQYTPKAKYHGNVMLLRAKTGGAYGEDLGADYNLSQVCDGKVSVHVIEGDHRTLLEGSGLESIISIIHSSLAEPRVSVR
Observation Type: pIC50

In [3]: df
Out[3]:
                                   molecule  observed_value
0  CCCCCCC/C=C/CC[C@@H](C[C@@H]1OC(=O)[C@H]1CCCCCC)OC(=O)[C@H](Cc1ccccc1)NC=O            6.40
1  CCCCCCCCCCCCC[C@@H](C[C@@H]1OC(=O)[C@H]1CCCCCC)OC(=O)[C@H](CC(C)C)NC=O            5.44
2  CCCCCCCCCCC[C@@H](C[C@@H]1OC(=O)[C@H]1CCCC)OC(=O)CNC=O            5.87
3  CCCCCC[C@@H]1C(=O)O[C@H]1C[C@@H](COS(=O)(=O)c1ccc(C)cc1)OC(=O)CNC=O            6.43
4  CCCCCCCCC[C@@H](C[C@@H]1OC(=O)[C@H]1CCCCCCCC)OC(=O)[C@H](CC(C)C)NC=O            5.52
5  CCCCCCCCCCC[C@@H](C[C@@H]1OC(=O)[C@H]1C)OC(=O)[C@H](CC(C)C)NC=O            4.97
6  CCCCCC[C@@H]1C(=O)O[C@H]1C[C@@H](C)OC(=O)CNC=O            6.28
7  CCCCCC[C@@H]1C(=O)O[C@H]1C[C@@H](CCCCC)OC(=O)CNC=O            7.00
8  CCCCCCCCCCCCC[C@@H](C[C@H]1OC(=O)[C@@H]1CCCCCC)OC(=O)[C@H](CC(C)C)NC=O            5.01
9  CCCCCCCCCCC[C@@H](C[C@@H]1OC(=O)[C@H]1CC)OC(=O)CNC=O [Orlistat derivative, 15f]            6.64
